The measured values listed here are drawn from BindingDB's records for doi:10.7270/Q25Q4TJ1.

Notes on IC50 obtained with Intestinal-type alkaline phosphatase (Mus musculus, UniProt P24822).
Sequence (P24822 whole entry, looked up): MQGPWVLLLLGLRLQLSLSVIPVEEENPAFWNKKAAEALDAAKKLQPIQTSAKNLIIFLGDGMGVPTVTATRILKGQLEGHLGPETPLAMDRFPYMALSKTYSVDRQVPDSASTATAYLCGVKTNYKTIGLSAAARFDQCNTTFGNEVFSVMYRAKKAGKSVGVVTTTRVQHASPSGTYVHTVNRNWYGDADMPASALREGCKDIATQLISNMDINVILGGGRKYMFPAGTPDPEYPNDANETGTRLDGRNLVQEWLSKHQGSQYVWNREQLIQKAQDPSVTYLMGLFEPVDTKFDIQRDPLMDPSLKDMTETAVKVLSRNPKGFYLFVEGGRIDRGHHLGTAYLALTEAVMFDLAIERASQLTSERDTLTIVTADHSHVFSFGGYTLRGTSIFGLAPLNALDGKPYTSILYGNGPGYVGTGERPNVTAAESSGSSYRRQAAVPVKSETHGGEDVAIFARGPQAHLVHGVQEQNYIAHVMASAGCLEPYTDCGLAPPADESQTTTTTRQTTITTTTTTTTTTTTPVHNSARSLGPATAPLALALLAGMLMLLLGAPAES

{"Compound": "CCOC(=O)c1c(C)[nH]c(C(=O)N/N=C/C2C=C([N+](=O)[O-])C=CC2=O)c1C (stereo not given)", "Measurement Units": "µM", "Relation Qualifier": ">", "IC50": 100}
{"Compound": "C=c1[nH]n(Cc2ccccc2)c(=O)c1=Cc1ccc(N(C)C)cc1", "Measurement Units": "µM", "Relation Qualifier": "=", "IC50": 35.1}
{"Compound": "O=Nc1[nH]c(=O)c(CC(=O)c2ccccc2)nc1NO [SMR000539633]", "Measurement Units": "µM", "Relation Qualifier": "=", "IC50": 35.5}
{"Compound": "O=c1c2ccccc2nc(N=NCc2c(O)ccc3ccccc23)n1O [SMR000145705]", "Measurement Units": "µM", "Relation Qualifier": "=", "IC50": 75.3}
{"Compound": "O=C(O)[C@H]1O[C@@H](Oc2c(-c3ccc(O)c(O)c3)oc3cc(O)cc(=O)c-3c2O)[C@H](O)[C@@H](O)[C@@H]1O [quercetin glucuronide]", "Measurement Units": "µM", "Relation Qualifier": "=", "IC50": 3.29}
